Molecular target: Serine/threonine-protein kinase pim-2 (Homo sapiens)
Sequence (Q9P1W9 whole entry): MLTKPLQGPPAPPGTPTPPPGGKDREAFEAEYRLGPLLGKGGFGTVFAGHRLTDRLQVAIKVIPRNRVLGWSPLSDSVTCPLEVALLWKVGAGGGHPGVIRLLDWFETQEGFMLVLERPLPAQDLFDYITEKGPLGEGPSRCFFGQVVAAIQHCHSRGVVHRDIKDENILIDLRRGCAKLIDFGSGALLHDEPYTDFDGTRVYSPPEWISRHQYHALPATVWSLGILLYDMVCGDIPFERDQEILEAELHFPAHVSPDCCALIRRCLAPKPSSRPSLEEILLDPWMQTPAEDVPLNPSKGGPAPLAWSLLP
recorded_metric: pKi
Conceptually, pKi converts a concentration in mol/L into minus its log10.

Exercise: Need pKi, item Cn1ncc(NC(=O)c2nc(Br)cnc2N)c1N1CCC[C@H](N)C1
Solution: 6.81

---

Biological target: Serine/threonine-protein kinase pim-3 (Homo sapiens, UniProt Q86V86)
Assay: Binding Assay: PIM-1, -2, and -3 enzymes were generated as fusion proteins expressed in bacteria and purified by IMAC column chromatography (Sun, X., Chiu, J. F., and He, Q. Y. (2005) Expert Rev. Proteomics, 2:649-657). A fluorescent-labeled Pim-specific peptide substrate, was custom synthesized by American Peptide Company (Sunnyvale, Calif.). Reaction Buffer contained 10 mM HEPES, pH 7.2, 10 mM MgCl2, 0.01% Tween 20, 2 mM DTT. Termination Buffer contained 190 mM HEPES, pH 7.2, 0.015% Brij-35, 0.2% Coating Reagent 3 (Caliper Life Sciences, Hopkinton, Mass.), 20 mM EDTA. Separation Buffer contained 100 mM HEPES, pH 7.2, 0.015% Brij-35, 0.1% Coating Reagent 3, 1:200 Coating Reagent 8 (Caliper Life Sciences, Hopkinton, Mass.), 10 mM EDTA and 5% DMSO.
recorded_metric: Ki (nM)
Kindly provide the numeric value in nM only, without the unit symbol.

Exercise: Which measured Ki belongs to Cn1ncc(NC(=O)c2nc(Br)cnc2N)c1N1CCC[C@H](N)C1 , tested on Serine/threonine-protein kinase pim-3 (Homo sapiens, UniProt Q86V86)?
Solution: 68.1
